growth: recorded values
# Test system: M14 melanoma
# protocol summary: NCI-60 one-dose screen, 48 h (100 = growth as untreated, 0 = no growth, -100 = all killed)
# condition details: 10 µM unless noted
Compounds without any hit were thinned out: in the full panel of roughly 83,000, 20% have a hit.
quantity kind: growth (%)

molecule=Nc1ncc(-c2ccc3ncnc(N4CCc5cc(F)c(Cl)cc54)c3c2)cc1C(F)(F)F quantity_kind=growth value_units=% numeric_readout=33.8
molecule=COc1ccc(C(=O)/C=C/c2ccc(Cl)cc2)cc1S(N)(=O)=O quantity_kind=growth value_units=% numeric_readout=-57.3
molecule=O=C1Nc2ccccc2/C1=C/c1cccn1CCCCCCn1c2ccccc2c(=O)c2ccccc21 quantity_kind=growth value_units=% numeric_readout=78.2
molecule=COc1ccc(/C=N/NC(=O)Cn2nnc3ccccc32)cc1 quantity_kind=growth value_units=% numeric_readout=109
molecule=NCCNc1ccc([N+](=O)[O-])cc1 quantity_kind=growth value_units=% numeric_readout=106
molecule="CCOC(=O)CC1CSC(N/N=C/c2ccc(O)cc2)=N1 (stereo not given)" quantity_kind=growth value_units=% numeric_readout=92
molecule="CCOC(=O)C1=CCC(n2cc(F)c(=O)[nH]c2=O)O1 (stereo not given)" quantity_kind=growth value_units=% numeric_readout=97.8
molecule=C=C(C[n+]1ccccc1)[C@@H]1CC[C@]2(C(=O)OC)CC[C@]3(C)[C@H](CC[C@@H]4[C@@]5(C)CCC(=O)C(C)(C)[C@@H]5CC[C@]43C)[C@@H]12 quantity_kind=growth value_units=% numeric_readout=87
molecule=O=C(CSc1nc(-c2ccccc2)cn1-c1ccc(Cl)cc1)c1ccc([N+](=O)[O-])cc1 quantity_kind=growth value_units=% numeric_readout=82
molecule="Nc1ncnc2c1N=C(c1ccc([N+](=O)[O-])cc1)CC(c1ccc3c(c1)OCO3)N2 (stereo not given)" quantity_kind=growth value_units=% numeric_readout=119
molecule=CC/C(=C(/c1ccc(Cl)cc1)c1ccc(OCCN2CCCCCC2)cc1)c1ccccc1 quantity_kind=growth value_units=% numeric_readout=81.6
molecule=Cc1ccc(OCCOCCOCCOCCOc2ccc(C)n(O)c2=S)c(=S)n1O quantity_kind=growth value_units=% numeric_readout=-16.1
molecule=Cc1ccc(S(=O)(=O)N(CCC(=O)O)c2ccccc2)cc1 quantity_kind=growth value_units=% numeric_readout=107
molecule=CCN1CCN(CCOc2ccc(CNc3ccc4nc(CCC5CCCCC5)[nH]c4c3)cc2)CC1 quantity_kind=growth value_units=% numeric_readout=-76.5
molecule=COc1cc(/C=C/C(=O)c2ccc(-n3cc(CN4CCN(c5cc6c(cc5F)c(=O)c(C(=O)O)cn6C5CC5)CC4)nn3)cc2)cc(OC)c1OC quantity_kind=growth value_units=% numeric_readout=88.1
molecule=COc1ccc(N/N=C/c2ccc3c(c2)Sc2ccccc2N3C)cc1 quantity_kind=growth value_units=% numeric_readout=40.9
molecule=O=C1/C(=C/c2ccccc2)COc2ccc(O)cc21 quantity_kind=growth value_units=% numeric_readout=85.8
molecule=COc1cc(CNC(=O)CCCC/C=C/C(C)C)ccc1OCc1cn(-c2cccc([N+](=O)[O-])c2)nn1 quantity_kind=growth value_units=% numeric_readout=93.5
molecule=Cn1nc(-c2ccc(Cl)cc2)nc2c(=O)n(C)c(=O)nc1-2 quantity_kind=growth value_units=% numeric_readout=-91.9
molecule=O=C1N/C(=N/N=C(c2ccccc2)c2ccccc2)S/C1=C\c1ccc(Br)cc1 quantity_kind=growth value_units=% numeric_readout=91.8

* * *

# Test system: M14 melanoma
# protocol summary: NCI-60 one-dose screen, 48 h (100 = growth as untreated, 0 = no growth, -100 = all killed)
# condition details: 10 µM unless noted
The panel holds about 83,000 compounds, 20% with a hit somewhere; the sample as a whole holds those more often.
Each record's class is read off its growth using these ranges: low value = under 30%, medium value = from 30% up to 90%, high value = 90% and over

compound=O=C(Cn1cc(CSc2nc3ccccc3o2)nn1)Nc1ccc([N+](=O)[O-])cc1 discrete_label="high value"
compound=COc1cc(/C=C/c2cc(/C=C/c3ccc(O)c(OC)c3)n(C(=O)Nc3ccc(C)cc3C)n2)ccc1O discrete_label="low value"
compound=CCCCCCCCNC(=O)[C@@H](N)CSCOC(C)=O discrete_label="medium value"
compound=CC(C)=CC(=O)C1C(=O)c2ccccc2C1=O discrete_label="high value"
compound=COc1cc(/C=C2\C(=O)N(CCOc3cc(O)c4c(=O)cc(-c5ccccc5)oc4c3)c3ccccc32)cc(OC)c1O discrete_label="low value"
compound=Clc1ccc2c(NCCCn3cnc4c(N5CCCC5)nc(Cl)nc43)ccnc2c1 discrete_label="high value"
compound="Cc1ccc(C2=Nc3c(N)nc(N)nc3NC(c3cccc(Nc4ccnc5cc(C(F)(F)F)ccc45)c3)C2)cc1 (stereo not given)" discrete_label="low value"
compound=CC1=C2[C@@H](CC1)[C@]1(C)O[C@@](C(C)C)(C[C@H]1OC(=O)CO)[C@H]2OC(=O)CCCc1ccccc1 discrete_label="medium value"
compound="O=C1CC2C=CCN2C=C1NC(=O)c1ccccc1 (stereo not given)" discrete_label="high value"

* * *

# System: OVCAR-3 ovarian
# protocol summary: NCI-60 one-dose screen, 48 h (100 = growth as untreated, 0 = no growth, -100 = all killed)
# condition details: 10 µM unless noted
This is part of a sample that, as a whole, favours compounds with a hit. Of some 83,000 tested, about 20% had one in any assay.
Quick reference: growth of the listed items.
quantity kind: growth (%)

molecule=COc1ccc(C(=O)/C=C/Nc2cc(-c3ccccc3)nn2-c2ccccc2)cc1 study_target="OVCAR-3 ovarian" numeric_readout=109
molecule=O=C(Nc1ncc(Cc2cc(C(F)(F)F)ccc2Cl)s1)C(=S)N1CCOCC1 study_target="OVCAR-3 ovarian" numeric_readout=105
molecule="CCCCCC(C)(O)C(C(=O)O)c1ccccc1 (stereo not given)" study_target="OVCAR-3 ovarian" numeric_readout=119
molecule=C/C(=C(\c1ccc(OCCCN(C)C)cc1)c1ccc(OC(=O)Cc2ccccc2)cc1)c1ccc(Cl)cc1 study_target="OVCAR-3 ovarian" numeric_readout=70.4
molecule=CCOC(=O)/C(=C\c1ccccc1Cl)P(=O)(OCC)OCC study_target="OVCAR-3 ovarian" numeric_readout=56.1
molecule=Cc1ccc(-c2nnc(SCc3nc(N)nc(Nc4ccccc4F)n3)n2-c2ccccc2)cc1 study_target="OVCAR-3 ovarian" numeric_readout=102
molecule=Cc1[nH]c(C(=O)Nc2ccc(C(N)=O)cc2OC(C)C)c(Cl)c1Cl study_target="OVCAR-3 ovarian" numeric_readout=105
molecule=CC(C)(C)n1cc(-c2ccnc(NCCNS(=O)(=O)c3ccc(Br)cc3)c2)c(-c2cccc(O)c2)n1 study_target="OVCAR-3 ovarian" numeric_readout=38.6
molecule=O=C(/C=C\c1ccc(O)c(O)c1)c1ccccc1O study_target="OVCAR-3 ovarian" numeric_readout=73.8
molecule="Cc1nc2sc(C(=O)Nc3ccccc3)c(N)c2cc1C(O)c1ccccc1 (stereo not given)" study_target="OVCAR-3 ovarian" numeric_readout=5.62

* * *

# System: MDA-MB-231 breast
# protocol summary: NCI-60 one-dose screen, 48 h (100 = growth as untreated, 0 = no growth, -100 = all killed)
# condition details: 10 µM unless noted
Compounds without any hit were thinned out: in the full panel of roughly 83,000, 20% have a hit.
Where growth equals or exceeds 50%, the correct label is TRUE; where it does not, the label is FALSE.

compound=CC1(C)CC[C@]2(CO)CC[C@]3(C)C(=CC[C@@H]4[C@@]5(C)CCNCC(C)(C)[C@@H]5CC[C@]43C)[C@@H]2C1 study_target="MDA-MB-231 breast" discrete_label=TRUE
compound=Cc1ccc(OCCOCCOCCOCCOc2ccc(C)n(O)c2=S)c(=S)n1O study_target="MDA-MB-231 breast" discrete_label=FALSE
compound=CC(C)n1cc(C2=C(c3cccc4ccccc34)C(=O)NC2=O)c2cc(Br)ccc21 study_target="MDA-MB-231 breast" discrete_label=TRUE
compound=C/C(=C(\c1ccc(OCCCN(C)C)cc1)c1ccc(OC(=O)Cc2ccccc2)cc1)c1ccc(Cl)cc1 study_target="MDA-MB-231 breast" discrete_label=TRUE
compound=Cc1ccc(NC(=O)c2ccc(Nc3ncnc4c3cnn4-c3cccc(F)c3)cc2)cc1 study_target="MDA-MB-231 breast" discrete_label=TRUE
compound=C=CCNc1ccc2c3c(cccc13)C(=O)N(CC=C)C2=O study_target="MDA-MB-231 breast" discrete_label=TRUE
compound=CCCCCCCCOC(=O)c1c(C)[nH]c(/C=C2\N=C(c3ccc[nH]3)C=C2OC)c1C study_target="MDA-MB-231 breast" discrete_label=FALSE
compound=Cn1cc(-c2csc(-c3cn(C)c4ccc(F)cc34)n2)c2cnccc21 study_target="MDA-MB-231 breast" discrete_label=FALSE
compound=O=c1ccc2c(ccc3ncccc32)o1 study_target="MDA-MB-231 breast" discrete_label=TRUE
compound=COC(=O)c1ccc(-n2cc(CCCOS(=O)(=O)c3ccc(F)cc3)nn2)cc1 study_target="MDA-MB-231 breast" discrete_label=TRUE
compound=COC(=O)c1nc(-c2ccc(C)cc2)oc1N1CCOCC1 study_target="MDA-MB-231 breast" discrete_label=TRUE
compound=COc1ccc(S(=O)(=O)N(C)c2oc(-c3ccc(Cl)cc3)nc2C#N)cc1 study_target="MDA-MB-231 breast" discrete_label=TRUE
compound=COC1=C(OC)C(=O)C(CCCCCCCCCCO)=C(C)C1=O study_target="MDA-MB-231 breast" discrete_label=FALSE
compound=COc1cc(-c2c(-c3ccccc3)c[nH]c2C(=O)NCCCO)c(OC)c2c1OCO2 study_target="MDA-MB-231 breast" discrete_label=TRUE
compound=C=C(C)Cn1c(SCC(=O)c2cccs2)nc2sc3c(c2c1=O)CCCC3 study_target="MDA-MB-231 breast" discrete_label=TRUE
compound=CCCN1C2CCC1/C(=C\c1ccc(OC)cc1)C(=O)/C2=C/c1ccc(OC)cc1 study_target="MDA-MB-231 breast" discrete_label=TRUE
compound="Cc1ccc(S(=O)(=O)c2nc(-c3ccccc3)oc2S(C)=O)cc1 (stereo not drawn)" study_target="MDA-MB-231 breast" discrete_label=FALSE
compound=COc1ccc(/C=C2/CCc3cc4ccc(OC)cc4[o+]c32)c(O)c1 study_target="MDA-MB-231 breast" discrete_label=FALSE
compound=O=C(c1ccccc1)[C@@H](c1ccccc1)[C@]1(O)C(=O)Nc2ccccc21 study_target="MDA-MB-231 breast" discrete_label=TRUE
compound=O=C(CN1C(=O)c2ccccc2S1(=O)=O)Nc1nc(-c2cc3ccccc3oc2=O)cs1 study_target="MDA-MB-231 breast" discrete_label=TRUE
compound=COc1cccc(NC(=O)c2sc3nc(C)c(C(=O)c4ccccc4)cc3c2N)c1 study_target="MDA-MB-231 breast" discrete_label=TRUE
compound="CC1=NC(=S)NC(c2ccccc2)/C1=C1/CC(c2ccccc2O)NN1 (stereo not drawn)" study_target="MDA-MB-231 breast" discrete_label=TRUE
compound=O=C1/C(=C/c2ccccc2)COc2ccc(O)cc21 study_target="MDA-MB-231 breast" discrete_label=TRUE
compound=CCNCCNc1c(C)c(-c2ccc(C(F)(F)F)cc2)c(C#N)c2nc3ccccc3n12 study_target="MDA-MB-231 breast" discrete_label=TRUE
compound=O=C(Nc1ncc(Cc2ccccc2)s1)c1ccc2c(c1)OCCO2 study_target="MDA-MB-231 breast" discrete_label=FALSE
compound=COc1cc2cc(Oc3ccc(NC(=O)Nc4ccc(F)c(C(F)(F)F)c4)cc3)c(C)nc2cc1OCCN1CCCCC1 study_target="MDA-MB-231 breast" discrete_label=FALSE
compound=Cc1cccc(CN(Nc2ccccc2)c2ccccc2)n1 study_target="MDA-MB-231 breast" discrete_label=TRUE
compound="COc1c(O[C@@H]2OC(CO)[C@H](O)[C@H](O)C2O)cc2oc3cc(O)c(CC=C(C)C)c(O)c3c(=O)c2c1CC=C(C)C (stereo partly drawn)" study_target="MDA-MB-231 breast" discrete_label=TRUE
compound=Fc1ccc(/C=C/c2cc(/C=C/c3ccc(F)cc3)n(-c3cc(F)cc(F)c3)n2)cc1 study_target="MDA-MB-231 breast" discrete_label=TRUE
compound=CC1(C)CCC[C@]23C(=O)O[C@](O)(C(=O)C4=C[C@@](C)(/C=C/CCCc5ccc6ccc7cccc8ccc5c6c78)CC[C@@]42O)[C@@H]13 study_target="MDA-MB-231 breast" discrete_label=FALSE
compound=C=C(C)[C@@H]1CC[C@]2(COCCCNCCCN)CC[C@]3(C)[C@H](CC[C@@H]4[C@@]5(C)CC[C@H](OCCCN)C(C)(C)[C@@H]5CC[C@]43C)[C@@H]12 study_target="MDA-MB-231 breast" discrete_label=FALSE
compound=O=c1cc(-c2nccc3c2[nH]c2ccccc23)c2cc(Cl)ccc2o1 study_target="MDA-MB-231 breast" discrete_label=TRUE

Where do the numbers come from? From PubChem BioAssay (NCI).
